test: PK study in mice; format: in vivo; conditions: male, ICR, mouse, plasma, po, 10 mg/kg
quantity-name: MRT inf (h)
Just the number in h, nothing appended.

Value of MRT inf reported for the compound O=C(Cc1cccc(C(F)(F)F)c1)Nc1cc(Oc2cc3sc(NC(=O)C4CC4)nc3cc2F)ccc1F [Compound 25] is 2.74

---

assay: PK study in mice; format: in vivo; details: male, ICR, mouse, plasma, po, 10 mg/kg, AUC0‒∞, 10 mg/kg p.o., mice
quantity-name: AUC (ng·h/mL)
I only need the number, in ng·h/mL, no unit after it.

AUC in this record for O=C(Cc1cccc(C(F)(F)F)c1)Nc1cc(Oc2cc3sc(NC(=O)C4CC4)nc3cc2F)ccc1F : 1030

---

test: PK study in mice; type: in vivo; conditions: male, ICR, mouse, plasma, iv, 1 mg/kg
quantity-name: clearance (mL/min/kg)
Please reply with the bare figure in mL/min/kg and do not write the unit itself.

compound O=C(Cc1cccc(C(F)(F)F)c1)Nc1cc(Oc2cc3sc(NC(=O)C4CC4)nc3cc2F)ccc1F , clearance observed: 16.8

---

molecular target: RIP3 (Homo sapiens, UniProt Q9Y572)
Sequence (Q9Y572 whole entry): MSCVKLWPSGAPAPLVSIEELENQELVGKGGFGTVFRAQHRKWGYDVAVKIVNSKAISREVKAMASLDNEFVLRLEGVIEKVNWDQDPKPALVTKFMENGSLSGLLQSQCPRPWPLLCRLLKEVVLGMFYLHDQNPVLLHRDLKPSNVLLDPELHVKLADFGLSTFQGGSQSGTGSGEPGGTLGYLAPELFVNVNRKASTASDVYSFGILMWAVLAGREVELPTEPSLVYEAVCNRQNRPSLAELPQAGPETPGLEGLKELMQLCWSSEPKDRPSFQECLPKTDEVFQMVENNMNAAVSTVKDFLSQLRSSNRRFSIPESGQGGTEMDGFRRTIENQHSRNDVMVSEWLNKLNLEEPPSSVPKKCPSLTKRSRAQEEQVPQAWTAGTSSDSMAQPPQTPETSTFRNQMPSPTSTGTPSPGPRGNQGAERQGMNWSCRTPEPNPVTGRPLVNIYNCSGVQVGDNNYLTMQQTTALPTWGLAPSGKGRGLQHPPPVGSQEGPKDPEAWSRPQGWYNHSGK
quantity-name: Kd (nM)
# number only, unit nM dropped from output

| smiles-notation | quantity-name | readout-number |
| --- | --- | --- |
| O=C(Cc1cccc(C(F)(F)F)c1)Nc1cc(Oc2ccc3nc(NC(=O)C4CC4)sc3c2[N+](=O)[O-])ccc1F | Kd | 260 |

CC(=O)c1c(Oc2ccc(F)c(NC(=O)Cc3cccc(C(F)(F)F)c3)c2)ccc2nc(NC(=O)C3CC3)sc12 yielded Kd of 330

---

Sequence of the target: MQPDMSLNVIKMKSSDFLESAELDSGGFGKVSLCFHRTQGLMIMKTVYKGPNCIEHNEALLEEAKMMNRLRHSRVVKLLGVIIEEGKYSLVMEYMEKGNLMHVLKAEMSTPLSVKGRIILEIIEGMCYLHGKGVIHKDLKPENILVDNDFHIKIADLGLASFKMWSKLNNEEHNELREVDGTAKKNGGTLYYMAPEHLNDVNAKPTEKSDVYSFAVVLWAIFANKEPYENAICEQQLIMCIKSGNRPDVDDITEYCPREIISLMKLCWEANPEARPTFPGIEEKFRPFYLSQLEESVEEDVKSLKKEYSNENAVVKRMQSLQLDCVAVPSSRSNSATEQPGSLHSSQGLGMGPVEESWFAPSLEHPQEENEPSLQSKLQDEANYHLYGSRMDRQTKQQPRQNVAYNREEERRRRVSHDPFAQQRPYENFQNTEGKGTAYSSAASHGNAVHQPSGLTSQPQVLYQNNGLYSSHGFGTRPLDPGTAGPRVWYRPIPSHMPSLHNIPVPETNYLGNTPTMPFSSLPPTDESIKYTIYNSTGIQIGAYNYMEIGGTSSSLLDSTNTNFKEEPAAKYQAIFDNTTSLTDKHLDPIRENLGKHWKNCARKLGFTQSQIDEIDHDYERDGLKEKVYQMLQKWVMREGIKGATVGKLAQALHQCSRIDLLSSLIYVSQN
quantity-name: Kd (nM)
Reply numerically in nM, unit not repeated.

| compound | Kd / nM |
| --- | --- |
| O=C(Cc1cccc(C(F)(F)F)c1)Nc1cc(Oc2ccc3nc(NC(=O)C4CC4)sc3c2[N+](=O)[O-])ccc1F [Compound 9] | 710 |

// Kd lookup, compound = CC(=O)c1c(Oc2ccc(F)c(NC(=O)Cc3cccc(C(F)(F)F)c3)c2)ccc2nc(NC(=O)C3CC3)sc12 [Compound 10] , result: 880

---

This section presents compounds with their documented CC50 values.
assay: Cytotoxicity; format: cell-based

Recorded CC50, per entry:
| smiles-notation | CC50 |
| --- | --- |
| O=C(Cc1cccc(C(F)(F)F)c1)Nc1cc(Oc2cc3sc(NC(=O)C4CC4)nc3cc2F)ccc1F | > 50 µM |
| CC(=O)c1c(Oc2ccc(F)c(NC(=O)Cc3cccc(C(F)(F)F)c3)c2)ccc2nc(NC(=O)C3CC3)sc12 | > 50 µM |

Proceed to the following item.
Given item O=C(Cc1cccc(C(F)(F)F)c1)Nc1cc(Oc2ccc3nc(NC(=O)C4CC4)sc3c2[N+](=O)[O-])ccc1F , the value recorded as its CC50 is > 50 µM

---

assay: PK study in mice; format: in vivo; settings: male, ICR, mouse, plasma, iv, 1 mg/kg
quantity-name: half-life (h)
# unit: h | format: bare number

Sample O=C(Cc1cccc(C(F)(F)F)c1)Nc1cc(Oc2cc3sc(NC(=O)C4CC4)nc3cc2F)ccc1F [Compound 25] ; half-life observed: 1.67

---

test: PK study in mice; assay type: in vivo; conditions: male, ICR, mouse, plasma, po, 10 mg/kg
quantity-name: bioavailability (%)
Response body: numeric value in %, unit text excluded.

So for O=C(Cc1cccc(C(F)(F)F)c1)Nc1cc(Oc2cc3sc(NC(=O)C4CC4)nc3cc2F)ccc1F [Compound 25] , the logged bioavailability turned out to be 9.69

---

test: PK study in mice; format: in vivo; details: male, ICR, mouse, plasma, po, 10 mg/kg
quantity-name: Cmax (ng/mL)
Enter your answer as a number in ng/mL; do not include the unit.

For reference, reported Cmax for O=C(Cc1cccc(C(F)(F)F)c1)Nc1cc(Oc2cc3sc(NC(=O)C4CC4)nc3cc2F)ccc1F stands at 381

---

experiment: PK study in mice; type: in vivo; conditions: male, ICR, mouse, plasma, po, 10 mg/kg, AUC0‒t, 10 mg/kg p.o., mice
quantity-name: AUC (ng·h/mL)
Give just the numeric value; ng·h/mL need not be written.

// sample O=C(Cc1cccc(C(F)(F)F)c1)Nc1cc(Oc2cc3sc(NC(=O)C4CC4)nc3cc2F)ccc1F , its AUC was 991
